Biological target: CIII2CIV2 (Complex III2IV2, cytochrome bcc-aa3 supercomplex) (Mycolicibacterium smegmatis, UniProt A0R052+I7GD61)
Construct: gene MSMEG_4263; CIII2CIV2 in IMVs from strain QcrB-3×FLAG (3×FLAG tag at the C terminus of the QcrB subunit); with other subunits of the CIII2CIV2 supercomplex
Test: succinate-driven acidification of inverted membrane vesicles (ACMA fluorescence); no inhibition of ATP-driven acidification
Format: biochemical
experimental-readout: IC50

Query :: Please give the measured IC50 for this compound: CCc1nc2ccc(Cl)cn2c1C(=O)NCc1ccc(N2CCC(c3ccc(OC(F)(F)F)cc3)CC2)cc1
Result :: ~140 nM
